Molecular target: BRAF G466V (Homo sapiens, UniProt P15056, G466V)
Construct: expressed in transfected cells
Sequence (P15056 whole entry G466V): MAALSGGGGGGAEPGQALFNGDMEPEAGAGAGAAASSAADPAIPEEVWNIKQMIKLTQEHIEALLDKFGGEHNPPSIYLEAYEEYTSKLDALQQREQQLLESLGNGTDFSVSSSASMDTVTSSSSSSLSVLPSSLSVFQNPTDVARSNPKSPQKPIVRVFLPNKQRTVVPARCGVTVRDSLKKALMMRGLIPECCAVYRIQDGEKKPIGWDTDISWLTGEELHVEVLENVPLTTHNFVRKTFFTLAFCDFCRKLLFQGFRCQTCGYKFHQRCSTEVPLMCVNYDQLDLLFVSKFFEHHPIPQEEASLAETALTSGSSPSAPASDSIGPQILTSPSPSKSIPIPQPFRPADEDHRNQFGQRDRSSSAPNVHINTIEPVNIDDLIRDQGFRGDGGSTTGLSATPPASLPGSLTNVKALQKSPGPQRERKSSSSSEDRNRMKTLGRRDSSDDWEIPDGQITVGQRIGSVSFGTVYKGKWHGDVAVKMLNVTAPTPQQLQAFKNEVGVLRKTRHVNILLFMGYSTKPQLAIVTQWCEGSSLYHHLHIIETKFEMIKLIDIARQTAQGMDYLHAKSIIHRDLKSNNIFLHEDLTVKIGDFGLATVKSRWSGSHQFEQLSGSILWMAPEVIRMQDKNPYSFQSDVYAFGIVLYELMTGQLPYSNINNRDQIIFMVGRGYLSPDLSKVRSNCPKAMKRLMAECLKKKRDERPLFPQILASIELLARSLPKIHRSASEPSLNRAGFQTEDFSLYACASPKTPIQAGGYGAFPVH
Assay: Cellular assay of target protein degradation, T-Rex 293 cells stably transfected with HA-BRAF G466V (HA immunofluorescence, high content imaging)
Format: cell-based
Details: half maximal degradation, T-Rex 293 HA-BRAF G466V; read-out: BRaf G466V DC50
Quick reference: DC50 of the listed items.

For the compound shown here, `O=C1CC[C@H](N2Cc3cc(N4C[C@H]5CN(CC6CCN(c7ccc(-c8cnc9[nH]cc(C(=O)c%10c(F)ccc(NS(=O)(=O)N%11CC[C@@H](F)C%11)c%10F)c9c8)cc7)CC6)C[C@H]5C4)ccc3C2=O)C(=O)N1` , give the reported DC50.
< 1 nM

For the compound shown here, O=C1CCC(N2Cc3cc(C4CCN(C[C@@H](O)Cc5ccc(-c6cnc7[nH]cc(C(=O)c8c(F)ccc(NS(=O)(=O)N9CC[C@@H](F)C9)c8F)c7c6)cc5)CC4)ccc3C2=O)C(=O)N1 (some centres unmarked) , give the reported DC50.
1 to 10 nM

---

Molecular target: BRAF V600E (Homo sapiens, UniProt P15056, V600E)
Construct: expressed in transfected cells
Sequence (P15056 whole entry V600E): as the sequence (P15056 whole entry G466V) above, with V466G, V600E counted along it
Assay: Cellular assay of target protein degradation, T-Rex 293 cells stably transfected with HA-BRAF_V600E (HA immunofluorescence, high content imaging)
Format: cell-based
Details: maximum degradation observed, T-Rex 293 HA-BRAF V600E
Quick reference: Dmax of the listed items.

A selection of reference data follows.
1) O=C1CC[C@H](NC(=O)c2ccc(CCCN3CC4(C3)CN(c3ccc(-c5cnc6[nH]cc(C(=O)c7c(F)ccc(NS(=O)(=O)N8CC[C@@H](F)C8)c7F)c6c5)cc3)C4)cc2F)C(=O)N1 ... 35 to 70%
2) O=C1CCC(N2Cc3cc(N4CCC(CN5C[C@H]6CCN(c7ccc(-c8cnc9[nH]cc(C(=O)c%10c(F)ccc(NS(=O)(=O)N%11CC[C@@H](F)C%11)c%10F)c9c8)cc7)C[C@H]6C5)CC4)ccc3C2=O)C(=O)N1 (some centres unmarked) ... 35 to 70%
3) O=C1CC[C@@H](N2Cc3cc(N4CCC(CN5CC6(C5)CN(c5ccc(-c7cnc8[nH]cc(C(=O)c9c(F)ccc(NS(=O)(=O)N%10CC[C@@H](F)C%10)c9F)c8c7)cc5)C6)CC4)c(F)cc3C2=O)C(=O)N1 ... 35 to 70%

For the compound shown here, `O=C1CC[C@H](N2Cc3cc(C[C@H](O)CN4CCC(c5ccc(-c6cnc7[nH]cc(C(=O)c8c(F)ccc(NS(=O)(=O)N9CC[C@@H](F)C9)c8F)c7c6)cc5)CC4)ccc3C2=O)C(=O)N1` , give the reported Dmax.
35 to 70%

For the compound shown here, O=C1CCC(N2Cc3cc(CCCCCN4CCC(c5ccc(-c6cnc7[nH]cc(C(=O)c8c(F)ccc(NS(=O)(=O)N9CC[C@@H](F)C9)c8F)c7c6)cc5)CC4)ccc3C2=O)C(=O)N1 (some centres unmarked) , give the reported Dmax.
35 to 70%

---

Biological target: BRAF G466V (Homo sapiens, UniProt P15056, G466V)
Construct: expressed in transfected cells
Assay: Cellular assay of target protein degradation, T-Rex 293 cells stably transfected with HA-BRAF G466V (HA immunofluorescence, high content imaging)
Type: cell-based
Details: maximum degradation observed, T-Rex 293 HA-BRAF G466V
observable: Dmax

1) C[C@@]12CN(CC3CCN(c4ccc5c(c4)CN([C@@H]4CCC(=O)NC4=O)C5=O)CC3)C[C@@H]1CN(c1ccc(-c3cnc4[nH]cc(C(=O)c5c(F)ccc(NS(=O)(=O)N6CC[C@@H](F)C6)c5F)c4c3)cc1)C2 ... 35 to 70%

For the compound shown here, O=C1CCC(NC(=O)c2ccc(N3CC4(CN(CCc5ccc(-c6cnc7[nH]cc(C(=O)c8c(F)ccc(NS(=O)(=O)N9CC[C@@H](F)C9)c8F)c7c6)cc5)C4)C3)cc2F)C(=O)N1 (stereo partly drawn) , give the reported Dmax.
35 to 70%

For the compound shown here, `O=C1CC[C@@H](N2Cc3cc(C[C@H](O)CN4CCN(c5ccc(-c6cnc7[nH]cc(C(=O)c8c(F)ccc(NS(=O)(=O)N9CC[C@@H](F)C9)c8F)c7c6)cc5)CC4)ccc3C2=O)C(=O)N1` , give the reported Dmax.
> 70%

For the compound shown here, `O=C1CC[C@H](N2Cc3cc(C4CCN(CC5CCN(c6ccc(-c7cnc8[nH]cc(C(=O)c9c(F)ccc(NS(=O)(=O)N%10CC[C@@H](F)C%10)c9C(F)(F)F)c8c7)cc6)CC5)CC4)ccc3C2=O)C(=O)N1` , give the reported Dmax.
35 to 70%

For the compound shown here, O=C1CCC(N2Cc3cc(N4CC(C5CN(CC6CCN(c7ccc(-c8cnc9[nH]cc(C(=O)c%10c(F)ccc(NS(=O)(=O)N%11CC[C@@H](F)C%11)c%10F)c9c8)cc7)CC6)C5)C4)ccc3C2=O)C(=O)N1 (stereo partly drawn) , give the reported Dmax.
> 70%

For the compound shown here, O=C1CCC(N2Cc3cc(C4CCN(CC[C@H]5CCN(c6ccc(-c7cnc8[nH]cc(C(=O)c9c(F)ccc(NS(=O)(=O)N%10CC[C@@H](F)C%10)c9F)c8c7)cc6)C5)CC4)ccc3C2=O)C(=O)N1 (stereo partly drawn) , give the reported Dmax.
> 70%

For the compound shown here, `O=C1CC[C@@H](NC(=O)c2ccc(N3CC4(CN(CC5CCN(c6ccc(-c7cnc8[nH]cc(C(=O)c9c(F)ccc(NS(=O)(=O)N%10CC[C@@H](F)C%10)c9F)c8c7)cc6)CC5)C4)C3)cc2F)C(=O)N1` , give the reported Dmax.
35 to 70%

For the compound shown here, O=C1CCC(N2Cc3cc(N4CCN(CC5CN(c6ccc(-c7cnc8[nH]cc(C(=O)c9c(F)ccc(NS(=O)(=O)N%10CC[C@@H](F)C%10)c9F)c8c7)cn6)C5)CC4)ccc3C2=O)C(=O)N1 (stereo partly drawn) , give the reported Dmax.
> 70%

For the compound shown here, O=C1CCC(N2Cc3cc(N4CC5(CC(Oc6ccc(-c7cnc8[nH]cc(C(=O)c9c(F)ccc(NS(=O)(=O)N%10CC[C@@H](F)C%10)c9F)c8c7)cc6)C5)C4)ccc3C2=O)C(=O)N1 (stereo partly drawn) , give the reported Dmax.
35 to 70%

---

Target: BRAF G466V (Homo sapiens, UniProt P15056, G466V)
Construct: expressed in transfected cells
Test: Cellular assay of target protein degradation, T-Rex 293 cells stably transfected with HA-BRAF G466V (HA immunofluorescence, high content imaging)
Assay type: cell-based
Details: half maximal degradation, T-Rex 293 HA-BRAF G466V; read-out: BRaf G466V DC50
Quick reference: DC50 of the listed items.

A selection of reference data follows.
1) O=C1CCC(N2Cc3cc(C4CCN(CC5CCN(c6ccc(-c7cnc8[nH]cc(C(=O)c9c(F)ccc(NS(=O)(=O)N%10CCCC%10)c9F)c8c7)cc6)CC5)CC4)ccc3C2=O)C(=O)N1 (stereo not drawn) ... < 1 nM
2) CNc1cc(-c2cnc3[nH]cc(C(=O)c4c(F)ccc(NS(=O)(=O)N5CC[C@@H](F)C5)c4F)c3c2)ccc1N1CCC(CN2CCC(c3ccc4c(c3)CN([C@H]3CCC(=O)NC3=O)C4=O)CC2)CC1 ... 1 to 10 nM

For the compound shown here, `O=C1CC[C@H](NC(=O)c2ccc(OCCCCN3CCN(c4ccc(-c5cnc6[nH]cc(C(=O)c7c(F)ccc(NS(=O)(=O)N8CC[C@@H](F)C8)c7F)c6c5)cc4)CC3)cc2F)C(=O)N1` , give the reported DC50.
> 30 nM

For the compound shown here, `O=C1CC[C@@H](NC(=O)c2ccc(N3CC4(CN(CC5CCN(c6ccc(-c7cnc8[nH]cc(C(=O)c9c(F)ccc(NS(=O)(=O)N%10CC[C@@H](F)C%10)c9F)c8c7)cc6)CC5)C4)C3)cc2F)C(=O)N1` , give the reported DC50.
1 to 10 nM

For the compound shown here, `C[C@@H]1CC[C@@H](C)N1S(=O)(=O)Nc1ccc(F)c(C(=O)c2c[nH]c3ncc(-c4ccc(N5CCC(CN6CCC(c7ccc8c(c7)CN([C@H]7CCC(=O)NC7=O)C8=O)CC6)CC5)cc4)cc23)c1F` , give the reported DC50.
10 to 30 nM

For the compound shown here, `O=C1CC[C@@H](N2Cc3cc(CC[C@@H](O)CN4CC5(C4)CN(c4ccc(-c6cnc7[nH]cc(C(=O)c8c(F)ccc(NS(=O)(=O)N9CC[C@@H](F)C9)c8F)c7c6)cc4)C5)ccc3C2=O)C(=O)N1` , give the reported DC50.
1 to 10 nM

For the compound shown here, O=C1CCC(NC(=O)c2ccc(N3CCC(CN4CC5(C4)CN(c4ccc(-c6cnc7[nH]cc(C(=O)c8c(F)ccc(NS(=O)(=O)N9CC[C@@H](F)C9)c8F)c7c6)cc4)C5)CC3)cn2)C(=O)N1 (stereo partly drawn) , give the reported DC50.
1 to 10 nM

For the compound shown here, `CCCS(=O)(=O)Nc1ccc(F)c(C(=O)c2c[nH]c3ncc(-c4ccc(N5CCC(CN6CCC(c7ccc8c(c7)CN([C@@H]7CCC(=O)NC7=O)C8=O)CC6)CC5)cc4)cc23)c1F` , give the reported DC50.
1 to 10 nM
